This collection of values is drawn from PubChem BioAssay (NCI).

Test system: MDA-MB-468 breast
MEASUREMENT_NOTES: NCI tumour cell line growth inhibition, 48 h
I'd appreciate it if you could supply TGI values for the items below.
Answer with a number only, understood to be in µM.

# input Dear colleague, I am looking for the recorded TGI of the following compound: "CCSc1sc(-c2ccc(C)cc2)nc1[P+](c1ccccc1)(c1ccccc1)c1ccccc1"
# output 0.731

# input Again, but for "N#Cc1c(-c2ccc(Br)cc2)nc2n[nH]c(-c3ccc(Br)cc3)c2c1-c1ccc(C(F)(F)F)cc1"
# output 15.5

# input Proceed to "COc1cc(OC)cc(-c2n[nH]nc2-c2ccc3c(c2)OCO3)c1"
# output 25.8

# input Could you do the same for "COc1ccc(CNCCN2C(=O)c3ccc4c5c(ccc(c35)C2=O)C(=O)N(CCNCc2ccc(OC)cc2)C4=O)cc1" , please?
# output 0.482

# input "O=C1/C(=C/c2ccc(F)cc2)CN(Cc2cn(CCNc3ccnc4cc(Cl)ccc34)nn2)C/C1=C\c1ccc(F)cc1" ?
# output 3.13

# input Do the same for Nc1ncnc2c1ncn2C1OC(CO)C(O)C1O (stereo unspecified) please
# output 5.41

====

System: MDA-MB-468 breast
MEASUREMENT_NOTES: NCI tumour cell line growth inhibition, 48 h
ASSAY_ENDPOINT: GI50

# input Which GI50 value belongs to O=C(c1ccc(O)cc1)C1[C@H](c2ccccc2Br)[C@@H](c2ccccc2)NC12C(=O)Nc1ccccc12 (stereo partly specified) ?
# output 7.08 µM

# input Next: "CC(=O)c1c[nH]c2ccc(-c3ccnc(Nc4ccc(NC(=O)c5cccc(F)c5)c(CN5CCOCC5)c4)n3)cc12"
# output 0.172 µM

# input What do you have for "COc1cc(OC)cc(-c2n[nH]nc2-c2ccc3c(c2)OCO3)c1" ?
# output 0.226 µM

# input Param item: "COc1cccc(-n2cnc3c(N/N=C/c4ccncc4)ncnc32)c1"
# output 6.4 µM

# input Request: "N=C(N)c1ccc(-c2ccc(-c3ccco3)o2)cc1"
# output 1.39 µM

# input Do the same for "CCCCCCCC(=O)SCC/C=C/[C@@H]1CC(=O)NCc2cccc(n2)CN(Cc2ccc(Cl)cc2)CC(=O)N[C@@H](C(C)C)C(=O)O1" please
# output 13.8 µM
